Each recorded value in this set is attributed to ChEMBL document CHEMBL1146801.

These records show pKi for Prothrombin (Homo sapiens, UniProt P00734).
Conceptually, pKi converts a concentration in mol/L into minus its log10.

Cc1cc(OCC2(CONC(=N)N)CC2)cc(C(=O)N(Cc2ccoc2)CC2CC2)c1 | 8.40
N=C(N)NOCCCOc1cc(Cl)cc(C(=O)N(CCN2CCCC2)CC2CC2)c1 | 6.69
Cc1cc(OCCCON=C(N)N)cc(C(=O)N(Cc2ccoc2)C(C)C)c1 | 7.17
CCSCCN(Cc1ccoc1)C(=O)c1cc(C)cc(OCCCON=C(N)N)c1 | 8.22
N=C(N)NOCCCOc1cc(Cl)cc(C(=O)N(CCc2ccccn2)CC2CC2)c1 | 7.23

Input line: Give Prothrombin (Homo sapiens, UniProt P00734) pKi for the following molecule: Cc1cc(OCCCONC(=N)N)cc(C(=O)N(Cc2cccnc2)CC2CC2)c1
Output line: 7.47

Input line: Give Prothrombin (Homo sapiens, UniProt P00734) pKi for the following molecule: CN(C(=O)c1cc(Cl)cc(OCCCONC(=N)N)c1)C1CCCC1
Output line: 6.43

Input line: Give Prothrombin (Homo sapiens, UniProt P00734) pKi for the following molecule: C=CCN(C(=O)c1cc(C)cc(OCCCONC(=N)N)c1)C1CCCC1
Output line: 8.00

Input line: Give Prothrombin (Homo sapiens, UniProt P00734) pKi for the following molecule: Cc1cc(OCCCON=C(N)N)cc(C(=O)N(Cc2ccoc2)CC2CCCCC2)c1
Output line: 7.68

Input line: Give Prothrombin (Homo sapiens, UniProt P00734) pKi for the following molecule: CCCN(Cc1ccccn1)C(=O)c1cc(C)cc(OCCCON=C(N)N)c1
Output line: 7.03

Input line: Give Prothrombin (Homo sapiens, UniProt P00734) pKi for the following molecule: Cc1cc(OCCCONC(=N)N)cc(C(=O)N(Cc2ccoc2)C2CCC2)c1
Output line: 7.66
